Tgt: adenosine 2a receptor (Homo sapiens, UniProt P29274)
Sequence (P29274 whole entry): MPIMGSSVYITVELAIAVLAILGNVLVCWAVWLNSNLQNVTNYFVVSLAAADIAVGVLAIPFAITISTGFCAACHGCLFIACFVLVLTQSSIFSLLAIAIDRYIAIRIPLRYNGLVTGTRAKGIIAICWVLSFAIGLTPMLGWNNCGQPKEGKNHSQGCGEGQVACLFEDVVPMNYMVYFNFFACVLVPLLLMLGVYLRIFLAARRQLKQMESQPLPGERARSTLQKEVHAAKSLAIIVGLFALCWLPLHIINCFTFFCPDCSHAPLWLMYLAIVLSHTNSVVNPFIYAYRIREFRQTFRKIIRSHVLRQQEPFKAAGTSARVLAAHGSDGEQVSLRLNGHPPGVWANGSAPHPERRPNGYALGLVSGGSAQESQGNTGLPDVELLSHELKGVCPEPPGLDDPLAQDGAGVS
Assay comment: Agonist activity against adenosine 2a receptor (CHO cells, cAMP/SPAP reporter)
Format: cell-based
Assay context: CHO cells transfected with human receptor; basal cAMP via SPAP; mean of all the versions tested
Structures can show the parent of a compound that is named as a salt.
Form field: A2a EC50 as a ratio of that of NECA (one value per entry).

# Compound, A2a EC50 as a ratio of that of NECA
rows = [
    ("CCC(CC)Nc1nc(NC2CCN(Cc3ccccc3)C2)nc2c1ncn2C1OC(c2nnn(CC)n2)C(O)C1O.O=CO.O=CO (stereo not shown)", 2.46),
    ("CCn1nnc(C2OC(n3cnc4c(N)nc(NC5CCCC5O)nc43)C(O)C2O)n1 (stereo not shown) [Example 10, Hydrochloride]", 0.11),
    ("CC(C)n1nnc([C@H]2O[C@@H](n3cnc4c(NCCC(C)(C)C)nc(NCCc5cn(C)cn5)nc43)[C@H](O)[C@@H]2O)n1.O=CO", 4.90),
    ("Cn1nnc(C2OC(n3cnc4c(NC(CO)Cc5ccccc5)nc(NCCN5CCCC5)nc43)C(O)C2O)n1 (stereo not shown)", 2.92),
    ("Cn1nnc([C@H]2O[C@@H](n3cnc4c(N)nc(NC5CC6CCC5C6)nc43)[C@H](O)[C@@H]2O)n1.O=CO (stereo partly shown)", 0.31),
    ("CCn1nnc([C@H]2O[C@@H](n3cnc4c(NCC(c5ccccc5)c5ccccc5)nc(NCCN)nc43)[C@H](O)[C@@H]2O)n1", 4.82),
    ("CCn1nnc(C2OC(n3cnc4c(NCCc5ccccc5)nc(NC5CCN(Cc6ccccc6)C5)nc43)C(O)C2O)n1.O=CO.O=CO (stereo not shown)", 1.40),
]

###

Form field: A1 EC50 as a ratio of that of NECA (one value per entry).
Tgt: UniProt:P30542
Sequence (P30542 whole entry): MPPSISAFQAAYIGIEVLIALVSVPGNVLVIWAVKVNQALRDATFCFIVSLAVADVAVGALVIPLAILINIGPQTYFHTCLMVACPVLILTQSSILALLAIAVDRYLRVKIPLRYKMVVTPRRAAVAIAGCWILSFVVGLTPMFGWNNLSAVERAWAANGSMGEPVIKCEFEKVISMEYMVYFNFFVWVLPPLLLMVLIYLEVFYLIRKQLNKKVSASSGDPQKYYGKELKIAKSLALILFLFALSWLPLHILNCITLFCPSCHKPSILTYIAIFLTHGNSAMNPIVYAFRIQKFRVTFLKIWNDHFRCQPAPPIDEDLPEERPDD
Assay comment: Agonist activity against adenosine 1 receptor (CHO cells, forskolin-enhanced cAMP/SPAP reporter)
Format: cell-based
Assay context: CHO cells transfected with human receptor; forskolin-enhanced cAMP via SPAP; mean of all the versions tested
Measurement type: A1 EC50 as a ratio of that of NECA

# Compound, Numeric value
rows = [
    ("CCn1nnc([C@H]2O[C@@H](n3cnc4c(NCCC(C)(C)C)nc(N[C@@H]5CCC[C@H]5O)nc43)[C@H](O)[C@@H]2O)n1.O=C(O)C(F)(F)F.O=C(O)C(F)(F)F", 69.10),
    ("Cn1nnc(C2OC(n3cnc4c(NCc5cccc(I)c5)nc(NC(CO)Cc5ccccc5)nc43)C(O)C2O)n1 (stereo not shown)", 17.70),
    ("COc1ccc(CCNc2nc(N)c3ncn([C@@H]4O[C@H](c5nnn(C)n5)[C@@H](O)[C@H]4O)c3n2)cc1OC.O=CO", 946),
    ("CCC(CC)Nc1nc(NC2CCC(N)CC2)nc2c1ncn2C1OC(c2nnn(C(C)C)n2)C(O)C1O.O=CO.O=CO (stereo not shown)", 73.85),
]

###

Form field: A2a EC50 as a ratio of that of NECA (one value per entry).
Tgt: adenosine 2a receptor (Homo sapiens)
Assay comment: Agonist activity against adenosine 2a receptor (CHO cells, cAMP/SPAP reporter)
Format: cell-based
Assay context: CHO cells transfected with human receptor; basal cAMP via SPAP; mean of all the versions tested

# Compound, A2a EC50 as a ratio of that of NECA
measured = [
    ("CCn1nnc(C2OC(n3cnc4c(NCc5ccccc5)nc(NC(CO)Cc5ccccc5)nc43)C(O)C2O)n1 (stereo not shown) [Example 61]", 9.20),
    ("CC(C)n1nnc(C2OC(n3cnc4c(NC5CCCC5)nc(NCCN5CCCCC5)nc43)C(O)C2O)n1 (stereo not shown) [Example 80]", 2.37),
    ("CCn1nnc(C2OC(n3cnc4c(NCc5cccc(I)c5)nc(NC5CCNC5)nc43)C(O)C2O)n1 (stereo not shown) [Example 23]", 0.8),
    ("Cn1nnc(C2OC(n3cnc4c(NCc5cccc(I)c5)nc(NC5CCC(N)CC5)nc43)C(O)C2O)n1.O=CO.O=CO (stereo not shown) [Example 105]", 1.07),
    ("CCn1nnc(C2OC(n3cnc4c(NC(CO)Cc5ccccc5)nc(NCCc5cn(C)cn5)nc43)C(O)C2O)n1 (stereo not shown) [Example 8]", 0.1),
    ("Cn1nnc(C2OC(n3cnc4c(NCc5cccc(I)c5)nc(NCCN5CCCCC5)nc43)C(O)C2O)n1 (stereo not shown) [Example 106]", 1.12),
    ("CCn1nnc([C@H]2O[C@@H](n3cnc4c(NCC(c5ccccc5)c5ccccc5)nc(NCCN5CCCC5)nc43)[C@H](O)[C@@H]2O)n1.O=C(O)C(F)(F)F.O=C(O)C(F)(F)F.O=C(O)C(F)(F)F [Example 43]", 2.23),
]

###

Tgt: adenosine 3 receptor (Homo sapiens)
Assay comment: Agonist activity against adenosine 3 receptor (CHO cells, forskolin-enhanced cAMP/SPAP reporter)
Format: cell-based
Assay context: CHO cells transfected with human receptor; forskolin-enhanced cAMP via SPAP; mean of all the versions tested
Form field: A3 EC50 as a ratio of that of NECA (one value per entry).
Measurement type: A3 EC50 as a ratio of that of NECA

# Compound, Tgt, Result
measured = [
    ("CCn1nnc([C@H]2O[C@@H](n3cnc4c(NCC(c5ccccc5)c5ccccc5)nc(NCCN5CCOCC5)nc43)[C@H](O)[C@@H]2O)n1.O=C(O)C(F)(F)F.O=C(O)C(F)(F)F.O=C(O)C(F)(F)F [Example 44]", "adenosine 3 receptor (Homo sapiens)", ">546"),
    ("CCn1nnc(C2OC(n3cnc4c(NCCc5ccccc5)nc(NC5CCNC5)nc43)C(O)C2O)n1 (stereo not drawn) [Example 74]", "adenosine 3 receptor (Homo sapiens)", ">171"),
    ("CCn1nnc(C2OC(n3cnc4c(NCc5cccc(I)c5)nc(NC5CCC(N)CC5)nc43)C(O)C2O)n1.O=CO.O=CO (stereo not drawn) [Example 100]", "adenosine 3 receptor (Homo sapiens)", ">127"),
    ("COc1ccc(CCNc2nc(N)c3ncn([C@@H]4O[C@H](c5nnn(C)n5)[C@@H](O)[C@H]4O)c3n2)cc1OC.O=CO [Example 38]", "adenosine 3 receptor (Homo sapiens)", ">315"),
    ("CCn1nnc(C2OC(n3cnc4c(NCc5ccccc5)nc(NC(CO)Cc5ccccc5)nc43)C(O)C2O)n1 (stereo not drawn) [Example 61]", "adenosine 3 receptor (Homo sapiens)", ">150"),
    ("CCC(CC)Nc1nc(NCCN2CCOCC2)nc2c1ncn2C1OC(c2nnn(C(C)C)n2)C(O)C1O.O=CO.O=CO (stereo not drawn) [Example 70]", "adenosine 3 receptor (Homo sapiens)", ">405"),
]

###

Tgt: adenosine 3 receptor (Homo sapiens)
Sequence (P0DMS8 1-318): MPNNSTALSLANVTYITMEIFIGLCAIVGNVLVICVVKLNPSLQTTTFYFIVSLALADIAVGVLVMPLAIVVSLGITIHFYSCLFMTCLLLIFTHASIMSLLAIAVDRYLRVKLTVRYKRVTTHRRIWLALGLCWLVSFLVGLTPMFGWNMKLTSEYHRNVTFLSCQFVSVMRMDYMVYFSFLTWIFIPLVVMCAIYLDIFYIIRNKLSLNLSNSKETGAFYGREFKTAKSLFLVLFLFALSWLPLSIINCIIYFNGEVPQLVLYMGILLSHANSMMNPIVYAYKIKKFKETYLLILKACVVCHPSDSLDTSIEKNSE
Assay comment: Agonist activity against adenosine 3 receptor (CHO cells, forskolin-enhanced cAMP/SPAP reporter)
Type: cell-based
Assay context: CHO cells transfected with human receptor; forskolin-enhanced cAMP via SPAP; mean of all the versions tested
Form field: A3 EC50 as a ratio of that of NECA (one value per entry).

# Compound, A3 EC50 as a ratio of that of NECA
records = [
    ("CCn1nnc(C2OC(n3cnc4c(NC5CCCC5)nc(NCCN5CCCCC5)nc43)C(O)C2O)n1.O=CO.O=CO (stereo not drawn) [Example 104]", ">235"),
    ("CCn1nnc([C@H]2O[C@@H](n3cnc4c(N)nc(NCCc5ccc(O)cc5)nc43)[C@H](O)[C@@H]2O)n1.O=CO [Example 16]", ">209"),
    ("CCn1nnc(C2OC(n3cnc4c(NC5CCCC5)nc(NC5CCC(N)CC5)nc43)C(O)C2O)n1.O=CO.O=CO (stereo not drawn) [Example 101]", ">195"),
    ("CCn1nnc([C@H]2O[C@@H](n3cnc4c(NCC(c5ccccc5)c5ccccc5)nc(N[C@H]5CC[C@H](N)CC5)nc43)[C@H](O)[C@@H]2O)n1 (relative stereo) [Example 1]", ">549"),
    ("CC(C)n1nnc([C@H]2O[C@@H](n3cnc4c(N[C@H](CO)Cc5ccccc5)nc(N[C@H]5CCNC5)nc43)[C@H](O)[C@@H]2O)n1.O=CO.O=CO [Example 64]", ">326"),
    ("COc1ccc(CCNc2nc(N)c3ncn([C@@H]4O[C@H](c5nnn(C(C)C)n5)[C@@H](O)[C@H]4O)c3n2)cc1OC.O=CO [Example 42]", ">413"),
]
